assay: RP, Agilent ZORBAX Eclipse XDB-C8, 150 × 4.6 mm, 3.5 µm, 25 °C, 0.6 mL/min, estimated dead time 2.6 min; A: water + 0.1% formic acid; B: acetonitrile + 0.1% formic acid; gradient (min/%B) 0/10 5/10 30/100; settings: stereoisomer not certain
endpointLabel: LC retention time (min)
Supply the numeric figure in min, leaving out any unit text.

What measured LC retention time goes with Cc1onc(-c2ccccc2)c1C(=O)NC1C(=O)N2C1SC(C)(C)C2C(=O)O (stereo not drawn) ?
19.2

Need LC retention time, item COc1ccc2c3c1OC1C(=O)CCC4(O)C(C2)N(C)CCC314 (stereo not drawn)
9.4

GET /values?readout=LC retention time&item= CCC1OC(=O)CC(O)C(C)C(OC2OC(C)C(OC3CC(C)(O)C(O)C(C)O3)C(N(C)C)C2O)C(CC=O)CC(C)C(=O)C=CC(C)=CC1COC1OC(C)C(O)C(OC)C1OC (stereo not drawn)
15

Returns the measured LC retention time for the input molecule. Input: `Cc1nnc(NS(=O)(=O)c2ccc(N)cc2)s1`
12.7

Name the recorded LC retention time for `CCCC(C)(COC(N)=O)COC(N)=O` .
14.7

Please report the recorded LC retention time for COc1cccc(C2(O)CCCCC2CN(C)C)c1 (stereo not drawn) .
11.1

What LC retention time value was documented for this molecule, CCCC1CC(C(=O)NC(C(C)O)C2OC(SC)C(O)C(O)C2O)N(C)C1 (stereo not drawn) ?
8.7

What value of measured LC retention time is listed for CC(C)NCC(O)COc1cccc2ccccc12 (stereo not drawn) ?
14.4

I have this molecule here, CON=C(C(=O)NC1C(=O)N2C(C(=O)O)=C(COC(C)=O)CSC12)c1csc(N)n1 (stereo not drawn) , and I need its recorded LC retention time.
12.9

Endpoint output: LC retention time of `NC(=O)N1c2ccccc2C=Cc2ccccc21` . Value?
17.2

For the molecule shown here, COc1ccc2cc(C(C)C(=O)O)ccc2c1 (stereo not drawn) , give the reported LC retention time.
20.9

Suppose we examine the molecule `Nc1ccc(S(N)(=O)=O)cc1` ; what LC retention time value has been reported?
4.6

What value of LC retention time has been recorded for this entry: `NC(=O)N1c2ccccc2CC(=O)c2ccccc21`
15.8
